Data provenance: patent US10968193B2

Target: human GPR40 (Homo sapiens, UniProt O14842)
Construct: expressed in transfected cells; host or cells: HEK cells stably expressing the aequorin reporter
Sequence (O14842 whole entry): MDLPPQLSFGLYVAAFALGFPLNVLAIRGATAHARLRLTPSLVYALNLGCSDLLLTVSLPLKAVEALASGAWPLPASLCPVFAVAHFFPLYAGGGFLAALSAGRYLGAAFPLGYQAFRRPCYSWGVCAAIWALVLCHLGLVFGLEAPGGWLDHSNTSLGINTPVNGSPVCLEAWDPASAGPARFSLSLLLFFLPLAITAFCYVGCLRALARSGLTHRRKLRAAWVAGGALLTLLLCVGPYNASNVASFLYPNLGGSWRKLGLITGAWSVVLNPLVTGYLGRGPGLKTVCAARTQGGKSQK
Assay: Inositol Phosphate Turnover (IP1) Assay 2
Type: cell-based
Conditions: HEK cells stably expressing human GPR40; 15,000 cells per well; compound acoustically transferred; CisBio IP-One kit
Experimental: Human and mouse GPR40 stable cell-lines were generated in CHO cells stably expressing NFAT BLA (Beta-lactamase). A human GPR40 stable cell-line was generated in HEK cells stably expressing the aequorin expressing reporter. […] Measurement of Inositol Phosphate Turnover (IP1) was performed using the CisBio IP-One kit (Part number 62IPAPEB). […] The plates were then read in a Perkin Elmer EnVision or equivalent reader able to measure FRET. […]
pEC50: −log10 of the molar value.
experimental endpoint: pEC50

Completed entries (count: 3):
COc1cc(-c2ccc(C3CCc4ccc([C@H](C5CC5)[C@H](C)C(=O)O)cc4O3)cc2CN(C)C)c(F)cn1 (single isomer, unassigned) [Example 1a]: 8.64
COc1cc(-c2ccc(C3CCc4ccc([C@H](C5CC5)[C@H](C)C(=O)O)cc4O3)nc2CN2CCOCC2)c(F)cn1 (mixture of isomers): 7.22
COc1cc(-c2ccc(C3CCc4ccc([C@H](C5CC5)[C@H](C)C(=O)O)cc4O3)cc2CN2C3CCC2COC3)c(F)cn1 (stereo partly drawn): 9.15

[A] CCOc1cc(-c2ccc(C3CCc4ccc([C@H](C5CC5)[C@H](C)C(=O)O)cc4O3)cc2CN2CCCC2)c(Cl)cn1 (mixture of isomers)
[B] COc1cc(-c2ccc(C3CCc4ccc([C@H](C5CC5)[C@H](C)C(=O)O)cc4O3)cc2CN2CC(F)(F)C2)c(F)cn1 (mixture of isomers)
[C] COc1cc(-c2ccc(C3CCc4ccc([C@H](C5CC5)[C@H](C)C(=O)O)cc4O3)cc2CN2[C@H](C)COC[C@H]2C)c(F)cn1 (stereo partly drawn)
Ask: Please rank these compounds by pEC50 in descending order. Sort the labels as requested; that list is your answer.
Reply: C, B, A
(C: 9.23, B: 8.70, A: 7.07)

----------
molecular target: human GPR40 (Homo sapiens, UniProt O14842); construct: expressed in transfected cells; host or cells: HEK cells stably expressing the aequorin reporter; experiment: Inositol Phosphate Turnover (IP1) Assay 3; assay type: cell-based; details: HEK cells stably expressing human GPR40
pEC50: −log10 of the molar value.
experimental endpoint: pEC50

Completed entries (count: 2):
COc1cc(-c2ccc(C3CCc4ccc([C@H](C5CC5)[C@H](C)C(=O)O)cc4O3)cc2CN2CC3CC3C2)c(C#N)cn1 (some centres unmarked) [Example 191]: 8.72
COc1cc(-c2ccc(C3CCc4ccc([C@H](C5CC5)[C@H](C)C(=O)O)cc4O3)c(CN3CCCC3)c2)ccn1 (single isomer, unassigned) [Example 112b]: 6.56

[a] COc1cc(-c2ccc(C3CCc4ccc([C@H](C5CC5)[C@H](C)C(=O)O)cc4O3)c(CN3CCCCC3(C)C)c2)c(F)cn1 (single isomer, unassigned) [Example 128a]
[b] CCC1CCCN1Cc1cc(C2CCc3ccc([C@H](C4CC4)[C@H](C)C(=O)O)cc3O2)ccc1-c1cc(OC)ncc1F (single isomer, unassigned) [Example 267a]
[c] CCOc1cc(-c2ccc(C3CCc4ccc([C@H](C5CC5)[C@H](C)C(=O)O)cc4O3)c(CN(C)C(C)(C)C)c2)c(F)cn1 (single isomer, unassigned) [Example 132b]
Ask: Reorder the items by pEC50, least to greatest. Sort the labels as requested; that list is your answer.
Reply: c, b, a
